Taken from paper PMC9576955.

- PROTOCOL: Urine metabolites after oral Gegen water extract, quantified by UPLC-MS/MS
- Format: in vivo, spontaneously hypertensive rats (SHRs)
- RUN CONDITIONS: spontaneously hypertensive rat (SHR), in vivo, 2 h after last dose of Gegen water extract 300 mg/kg p.o., 3-week treatment, Mean ± SEM, n = 8, read-out: Content in urine, 2 h
PROPERTY LABEL: concentration at 2 h (ng/mL)
Express it in ng/mL; write the number only.

Incoming: Recorded concentration at 2 h for O=c1c(-c2ccc(O)cc2)coc2cc(O)cc(O)c12 [Genistein, Genistein (5-hydroxyl daidzein)] , please?
Outgoing: 517

* * *

- PROTOCOL: Urine metabolites after oral Gegen water extract, quantified by UPLC-MS/MS
- Format: in vivo, spontaneously hypertensive rats (SHRs)
- RUN CONDITIONS: spontaneously hypertensive rat (SHR), urine, oral, 6 h after last dose of Gegen water extract 300 mg/kg p.o., 3-week treatment, Mean ± SEM, n = 8, read-out: Content in urine, 6 h
- Experimental: Urine samples were collected into ice-cold 15-ml Falcon tubes every 2 h and up to a total of 8 h, and the tubes were cooled by ice to prevent bacteria proliferation and water evaporation during collection. […] The gradient profile was set as follows: 10-40% B from 0 to 11 min; and 40-80% B from 11 to 15 min. […] The precision and accuracy of the quantitation were satisfied according to FDA Bioanalytical Method Validation Guidance for Industry. […]
Let's look at some molecules and their measured concentration at 6 h.
Only the number, expressed in ng/mL, is required.

Incoming: Endpoint output: concentration at 6 h of O=c1c(-c2ccc(O)cc2)coc2cc(O)ccc12 . Value?
Outgoing: 8130

Incoming: GET /values?readout=concentration at 6 h&item= O=c1c(-c2ccc(O)cc2)coc2c([C@@H]3O[C@H](CO)[C@@H](O)[C@H](O)[C@H]3O)c(O)ccc12 [Puerarin, puerarin (daidzein-8-C-glucoside)]
Outgoing: 3310

New cases:
Incoming: Requested field: concentration at 6 h. Item: COc1ccc(-c2coc3cc(O)cc(O)c3c2=O)cc1
Outgoing: 30
